assay summary: in vitro
conditions: human, oral keratinocytes
value kind: viability at 24 h, 100 µM (%)
Provide the reading as a plain figure in %.

Specify reported viability at 24 h, 100 µM for the molecule shown: N[C@@H](CSSC[C@H](N)C(=O)O)C(=O)O
109

----------
assay summary: Human immune cell line THP-1 in vitro assay, cell viability
conditions: thp-1 cells, Cell viability (%), Table 1, Piperlongumine 5 µM, co-treated with E.coli LPS, 24 hours, Control 100, LPS alone 91
value kind: viability at 24 h, 5 µM (%)
Quick note: give the figure in %, leave out the unit.

Entry COc1cc(/C=C/C(=O)N2CCC=CC2=O)cc(OC)c1OC needs its viability at 24 h, 5 µM filled in; supply it.
100
